# Tested on: respiratory syncytial virus F protein
# ASSAY COMMENT: Immunization studies, anti-RSV-F titers
# Type: in vivo
# EXPERIMENTAL CONTEXT: anti-RSV-F titer; BALB/c; course A = days 0 & 21; 4 weeks after second dose; liposomes with 0.1 μg vA317 replicon (naked: 1 μg)
Threshold check on 4wp2 pool 1: at or above 10000 gives 1, strictly below gives 0.

[
  {
    "COMPOUND": "CCCCC/C=C\\C/C=C\\CCCCCCCC(=O)Oc1cc(COC(=O)CCN(C)C)cc(OC(=O)CCCCCCC/C=C\\C/C=C\\CCCCC)c1 [Example 26]",
    "ANSWER LABEL": 0
  },
  {
    "COMPOUND": "CCCCC/C=C\\C/C=C\\CCCCCCCCOc1cc(COC(=O)OCCCN(C)C)cc(OCCCCCCCC/C=C\\C/C=C\\CCCCC)c1 [Example 68]",
    "ANSWER LABEL": 1
  },
  {
    "COMPOUND": "CCCCC/C=C\\C/C=C\\CCCCCCCC(=O)OCc1cc(COC(=O)CCCCCCC/C=C\\C/C=C\\CCCCC)cc(COC(=O)CCN(C)C)c1 [Example 29]",
    "ANSWER LABEL": 1
  },
  {
    "COMPOUND": "CCCCC/C=C\\C/C=C\\CCCCCCCCOc1cc(C(=O)OCCCN(C)C)cc(OCCCCCCCC/C=C\\C/C=C\\CCCCC)n1 [Example 25]",
    "ANSWER LABEL": 0
  },
  {
    "COMPOUND": "CCCCC/C=C\\C/C=C\\CCCCCCCCNC(=O)c1cc(COC(=O)CCCN(C)C)cc(C(=O)NCCCCCCCC/C=C\\C/C=C\\CCCCC)c1 [Example 66]",
    "ANSWER LABEL": 0
  },
  {
    "COMPOUND": "CCCCC/C=C\\C/C=C\\CCCCCCCCOc1cc(CCCOC(=O)CCN(C)C)cc(OCCCCCCCC/C=C\\C/C=C\\CCCCC)c1 [Example 81]",
    "ANSWER LABEL": 1
  },
  {
    "COMPOUND": "CCCCC/C=C\\C/C=C\\CCCCCCCC(=O)OCc1cc(COC(=O)CCCCCCC/C=C\\C/C=C\\CCCCC)cc(COC(=O)OCCN(C)C)c1 [Example 70]",
    "ANSWER LABEL": 1
  },
  {
    "COMPOUND": "CCCCC/C=C\\C/C=C\\CCCCCCCC(=O)OCc1cc(COC(=O)CCCCCCC/C=C\\C/C=C\\CCCCC)cc(COC(=O)OCCCN(CC)CC)c1 [Example 69]",
    "ANSWER LABEL": 1
  }
]

====

# ASSAY COMMENT: Polydispersity index (PDI) of lipid nanoparticle (dynamic light scattering)
# Format: physicochemical
# EXPERIMENTAL CONTEXT: FVII siRNA LNP; Chol/DSPC/PEG-DMG, molar ratio 45/44/9/2
Threshold check on PDI: at or above 0.04 gives t, strictly below gives f.

[
  {
    "COMPOUND": "CCCCCCCCCCOC(=O)CCCCCCCOc1cc(CN(C)C)cc(OCCCCCCCC(=O)OCCCCCCCCCC)c1",
    "ANSWER LABEL": "f"
  },
  {
    "COMPOUND": "CCCCCCCCOC(CCCOc1cc(CN(C)C)cc(OCCCC(OCCCCCCCC)OCCCCCCCC)c1)OCCCCCCCC",
    "ANSWER LABEL": "t"
  },
  {
    "COMPOUND": "CCCCCCCC(=O)OCC(CCOc1cc(CN(C)C)cc(OCCC(COC(=O)CCCCCCC)OC(=O)CCCCCCC)c1)OC(=O)CCCCCCC (stereo not drawn)",
    "ANSWER LABEL": "t"
  },
  {
    "COMPOUND": "CCCCCCCC/C=C\\CCCCCCCCOc1cc(CN(C)C)cc(OCCCCCCCC/C=C\\CCCCCCCC)c1",
    "ANSWER LABEL": "t"
  }
]

Cited source for all entries: patent US10124065B2
